target: BRD3(BD1) (Homo sapiens); construct: tested on BD1 and BD2 domains (6×His‐tagged) of each BET protein; experiment: TR-FRET displacement binding assay; conditions: AlexaFluor647 derivative of 1
Sequence (Q15059 34-140 limits assumed): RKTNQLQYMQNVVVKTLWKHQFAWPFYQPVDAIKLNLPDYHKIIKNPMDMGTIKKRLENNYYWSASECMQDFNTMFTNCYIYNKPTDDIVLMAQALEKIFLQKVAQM
Result Type: IC50

Briefly, IC50 measured for Cc1cc(-c2nc3ccc(S(=O)(=O)Nc4ccccn4)cc3[nH]2)cc(C)c1O : 180 nM

---

experiment: in vitro; details: PAMPA, pH 7.4
Provide the reported Papp at 24 h, 0.2 mM of each item.
Provide only the numeric value, understood in ×10⁻⁶ cm/s.

Looking up Cc1cc(/N=N/c2ccc(S(=O)(=O)Nc3ccc(C#N)cc3)cc2)cc(C)c1O , I see its Papp at 24 h, 0.2 mM listed as 1.1

// Papp at 24 h, 0.2 mM value for CC(C)NCC(O)COc1cccc2ccccc12 (centres unmarked) : 1.91

Short answer for Cc1cc(/N=N/c2ccc(S(=O)(=O)Nc3ccccn3)cc2)c(N)cc1O [7 a, MS436, reference compound] : Papp at 24 h, 0.2 mM was 0.0103

// Cc1cc(-c2nc3ccc(S(=O)(=O)Nc4ccc(C#N)cc4)cc3[nH]2)cc(C)c1O : Papp at 24 h, 0.2 mM value = 0.0909

Form field Papp at 24 h, 0.2 mM, entry Cc1cc(-c2nc3ccc(S(=O)(=O)Nc4ccccn4)cc3[nH]2)cc(C)c1O : 0.107
